- tested.on: T1, human SALM5 LRR-Ig (wild type) (human, UniProt Q96NI6 18-374, N-linked glycans at N73, N330 and N339)
- T1 construct: SALM5, human, LRR and Ig domains, residues 18-374; Glycans trimmed with Endo H only for crystallization; also called SALM5 LRR-Ig WT; WT; source: BacMam baculovirus-transduced HEK293 GnTI- cells, secreted, purified (Ni-NTA, gel filtration); not shown: His7, C-terminal, kept
- T1 sequence (looked up): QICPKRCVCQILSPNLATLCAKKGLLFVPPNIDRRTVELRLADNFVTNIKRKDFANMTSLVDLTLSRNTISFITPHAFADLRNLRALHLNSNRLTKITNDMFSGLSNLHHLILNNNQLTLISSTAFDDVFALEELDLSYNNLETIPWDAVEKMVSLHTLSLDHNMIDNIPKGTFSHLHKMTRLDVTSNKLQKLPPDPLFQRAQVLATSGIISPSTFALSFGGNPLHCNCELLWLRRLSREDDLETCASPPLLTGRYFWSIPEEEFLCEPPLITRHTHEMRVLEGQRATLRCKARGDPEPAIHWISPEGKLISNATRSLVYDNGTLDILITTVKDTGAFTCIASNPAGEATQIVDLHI
- protocol.summary: SPR; Biacore T200, 25 °C; His-tagged SALM5 LRR-Ig immobilised on CM5; His-tagged PTPδ Ig1–3 variants as analytes 2.74-6000 nM; 10 mM HEPES pH 7.4, 150 mM NaCl, 3 mM EDTA, 0.05% P20; 1:1 Langmuir model
- assay.setup: both partners purified
value.type: Kd (nM)
Output spec: scalar in nM, unitless text.

binder	result.units	Kd
human PTPδ Ig1–3 WT (domain or fragment, UniProt P23468 21-320, looked up, PTPδ, human, Ig domains 1-3 with MeA and MeB remained; residues 21-320 as stated for its variants; also called MeA^+/MeB^+; source: BacMam baculovirus-transduced HEK293 GnTI- cells, secreted, purified (Ni-NTA, gel filtration); not shown: His7, C-terminal, kept) ETPPRFTRTPVDQTGVSGGVASFICQATGDPRPKIVWNKKGKKVSNQRFEVIEFDDGSGSVLRIQPLRTPRDEAIYECVASNNVGEISVSTRLTVLREDQIPRGFPTIDMGPQLKVVERTRTATMLCAASGNPDPEITWFKDFLPVDTSNNNGRIKQLRSESIGGTPIRGALQIEQSEESDQGKYECVATNSAGTRYSAPANLYVRELREVRRVPPRFSIPPTNHEIMPGGSVNITCVAVGSPMPYVKWMLGAEDLTPEDDMPIGRNVLELNDVRQSANYTCVAMSTLGVIEAIAQITVK	nM	66

# input Annotate the binder human PTPδ Ig1–3 (MeB^−) (domain or fragment, UniProt P23468 21-320, looked up, PTPδ, human, Ig domains 1-3, residues 21-320 with the MeB splice insert ELRE 227-230 deleted; Splice code variant lacking mini exon B; also called MeA^+/MeB^−; source: BacMam baculovirus-transduced HEK293 GnTI- cells, secreted, purified (Ni-NTA, gel filtration); not shown: His7, C-terminal, kept) ETPPRFTRTPVDQTGVSGGVASFICQATGDPRPKIVWNKKGKKVSNQRFEVIEFDDGSGSVLRIQPLRTPRDEAIYECVASNNVGEISVSTRLTVLREDQIPRGFPTIDMGPQLKVVERTRTATMLCAASGNPDPEITWFKDFLPVDTSNNNGRIKQLRSESIGGTPIRGALQIEQSEESDQGKYECVATNSAGTRYSAPANLYVRVRRVPPRFSIPPTNHEIMPGGSVNITCVAVGSPMPYVKWMLGAEDLTPEDDMPIGRNVLELNDVRQSANYTCVAMSTLGVIEAIAQITVK with its measured Kd.
# output 1780

# input Supply recorded Kd for human PTPδ Ig1–3 (MeA^−/MeB^−) (domain or fragment, UniProt P23468 21-320, looked up, PTPδ, human, Ig domains 1-3, residues 21-320 with both residues 181-189 (MeA) and 227-230 (MeB) deleted; Splice code variant lacking mini exons A and B; source: BacMam baculovirus-transduced HEK293 GnTI- cells, secreted, purified (Ni-NTA, gel filtration); not shown: His7, C-terminal, kept) ETPPRFTRTPVDQTGVSGGVASFICQATGDPRPKIVWNKKGKKVSNQRFEVIEFDDGSGSVLRIQPLRTPRDEAIYECVASNNVGEISVSTRLTVLREDQIPRGFPTIDMGPQLKVVERTRTATMLCAASGNPDPEITWFKDFLPVDTSNNNGRIKQLRSGALQIEQSEESDQGKYECVATNSAGTRYSAPANLYVRVRRVPPRFSIPPTNHEIMPGGSVNITCVAVGSPMPYVKWMLGAEDLTPEDDMPIGRNVLELNDVRQSANYTCVAMSTLGVIEAIAQITVK here.
# output 1870

# input Give a short answer stating reported Kd for human PTPδ Ig1–3 (MeA^−) (domain or fragment, UniProt P23468 21-320, looked up, Glycans trimmed with Endo H only for crystallization; also called MeA^−/MeB^+; source: BacMam baculovirus-transduced HEK293 GnTI- cells, secreted, purified (Ni-NTA, gel filtration); not shown: His7, C-terminal, kept) ETPPRFTRTPVDQTGVSGGVASFICQATGDPRPKIVWNKKGKKVSNQRFEVIEFDDGSGSVLRIQPLRTPRDEAIYECVASNNVGEISVSTRLTVLREDQIPRGFPTIDMGPQLKVVERTRTATMLCAASGNPDPEITWFKDFLPVDTSNNNGRIKQLRSGALQIEQSEESDQGKYECVATNSAGTRYSAPANLYVRELREVRRVPPRFSIPPTNHEIMPGGSVNITCVAVGSPMPYVKWMLGAEDLTPEDDMPIGRNVLELNDVRQSANYTCVAMSTLGVIEAIAQITVK .
# output 99.9

Attribution: paper PMC5773555
